Molecular target: T1, CRBN, Q96SW2;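 also: pooled lentiviral library of zinc finger degron-EGFP fusions in mCherry-positive Jurkat cells, FACS-sorted after compound exposure, with degron abundance counted by next-generation sequencing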
T1 chain: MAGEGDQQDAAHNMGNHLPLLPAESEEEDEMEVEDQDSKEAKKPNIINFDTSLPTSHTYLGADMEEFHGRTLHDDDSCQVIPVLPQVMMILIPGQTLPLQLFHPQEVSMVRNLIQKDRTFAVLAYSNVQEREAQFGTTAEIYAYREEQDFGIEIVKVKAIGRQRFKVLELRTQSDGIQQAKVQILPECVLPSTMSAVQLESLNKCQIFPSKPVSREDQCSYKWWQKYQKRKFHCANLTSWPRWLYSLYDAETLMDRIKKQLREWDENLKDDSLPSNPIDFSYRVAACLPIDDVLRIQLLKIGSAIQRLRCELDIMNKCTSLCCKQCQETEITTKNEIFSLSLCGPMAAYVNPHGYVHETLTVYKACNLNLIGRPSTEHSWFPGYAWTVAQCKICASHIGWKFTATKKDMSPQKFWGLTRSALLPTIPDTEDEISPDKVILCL
Test: log2 fold change of degron read counts, EGFP-low vs EGFP+ sorted cells (limma voom), compound-induced degradation; higher = more compound-induced degradation of the degron-EGFP fusion; degrons are variants of IKZF1/3 zinc finger 2; compound dose not given here
Conditions: Jurkat; 18 h; compound: compound 19 (5-tert-butyl-thalidomide)
In all, about 8,300 sequences were measured (“log2 fold change of degron read counts, EGFP-low vs EGFP+ sorted cells (limma voom), compound-induced degradation”: median about -1.1, highest 2% from about 3.2 on). For the sample, the highest values were picked, then their nearest neighbours and some sequences at random.
Quantity name: log2 fold change of degron read counts
The answer should be a number; do not append a unit.

# example entries with known answers
{"Input sequence": "FACEVCGACFTQKGNLLRHIKL [46F_47A_49E_50V_52G_53A_54C_55F_67L_, Q9UKT9]", "Quantity name": "log2 fold change of degron read counts", "Obs value": 3.76}
{"Input sequence": "FICPVCGATFTQKGNLLRHIKL [46F_47I_49P_50V_52G_53A_54T_55F_67L_, Q9UKT9]", "Quantity name": "log2 fold change of degron read counts", "Obs value": -1.38}
{"Input sequence": "FECEVCGACFTQKGNLLRHIKL [46F_47E_49E_50V_52G_53A_54C_55F_67L_, Q9UKT9]", "Quantity name": "log2 fold change of degron read counts", "Obs value": 0.0523}

Exam item: Look up log2 fold change of degron read counts of FCCEVCGACFTQKGNLLRHIKL [46F_47C_49E_50V_52G_53A_54C_55F_67L_, Q9UKT9] and report it.
Marked response: 2.54

Exam item: Quickly give me recorded log2 fold change of degron read counts for FQCEICGRPFTQKGNLLRHIKL [46F_47Q_49E_50I_52G_53R_54P_55F_67L_, Q9UKT9]
Marked response: -0.793

Exam item: Return reported log2 fold change of degron read counts. Input sequence: FFCEVCGACFTQKGNLLRHIKL [46F_47F_49E_50V_52G_53A_54C_55F_67L_, Q9UKT9]
Marked response: 3.55

Exam item: Fill in reported log2 fold change of degron read counts for this entry: FQCEICGAPFTQKGNLLRHIKL [46F_47Q_49E_50I_52G_53A_54P_55F_67L_, Q9UKT9]
Marked response: 3.69
